# EXPERIMENTAL_TARGET: c-Met enzyme (Homo sapiens (Human), UniProt P08581)
# Sequence (P08581 25-1390): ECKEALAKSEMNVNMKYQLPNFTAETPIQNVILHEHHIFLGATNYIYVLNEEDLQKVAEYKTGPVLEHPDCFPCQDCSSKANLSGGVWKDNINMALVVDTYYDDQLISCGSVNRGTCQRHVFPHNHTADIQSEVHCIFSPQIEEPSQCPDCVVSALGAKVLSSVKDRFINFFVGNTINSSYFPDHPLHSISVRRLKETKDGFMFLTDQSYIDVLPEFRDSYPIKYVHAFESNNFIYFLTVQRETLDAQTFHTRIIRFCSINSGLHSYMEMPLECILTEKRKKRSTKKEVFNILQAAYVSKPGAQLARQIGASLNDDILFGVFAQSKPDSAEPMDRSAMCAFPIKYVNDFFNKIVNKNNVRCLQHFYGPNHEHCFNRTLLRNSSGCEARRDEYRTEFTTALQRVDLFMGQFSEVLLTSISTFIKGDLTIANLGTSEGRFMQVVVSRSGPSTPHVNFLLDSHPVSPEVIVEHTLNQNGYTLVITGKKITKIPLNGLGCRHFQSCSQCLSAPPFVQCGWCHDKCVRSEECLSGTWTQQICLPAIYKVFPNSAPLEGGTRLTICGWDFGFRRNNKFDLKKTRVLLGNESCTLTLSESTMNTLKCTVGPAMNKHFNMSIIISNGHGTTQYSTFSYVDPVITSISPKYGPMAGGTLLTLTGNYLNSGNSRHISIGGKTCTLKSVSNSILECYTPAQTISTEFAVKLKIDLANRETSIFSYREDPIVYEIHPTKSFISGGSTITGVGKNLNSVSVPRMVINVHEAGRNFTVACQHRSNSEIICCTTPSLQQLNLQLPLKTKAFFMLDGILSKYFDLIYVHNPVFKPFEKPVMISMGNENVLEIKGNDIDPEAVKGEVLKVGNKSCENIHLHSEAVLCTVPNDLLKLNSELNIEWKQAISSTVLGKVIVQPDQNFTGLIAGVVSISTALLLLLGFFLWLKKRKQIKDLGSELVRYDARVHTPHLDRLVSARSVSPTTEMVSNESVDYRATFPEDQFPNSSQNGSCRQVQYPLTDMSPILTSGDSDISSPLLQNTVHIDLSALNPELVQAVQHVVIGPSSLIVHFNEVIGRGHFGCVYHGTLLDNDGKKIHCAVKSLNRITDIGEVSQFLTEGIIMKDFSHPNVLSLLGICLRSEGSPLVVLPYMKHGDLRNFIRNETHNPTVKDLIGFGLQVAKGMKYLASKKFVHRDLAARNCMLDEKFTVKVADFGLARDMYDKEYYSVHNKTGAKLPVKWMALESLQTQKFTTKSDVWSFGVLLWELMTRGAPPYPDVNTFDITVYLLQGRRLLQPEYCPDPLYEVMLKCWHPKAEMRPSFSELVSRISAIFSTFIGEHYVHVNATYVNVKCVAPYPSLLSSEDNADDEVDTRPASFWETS
# METHOD_NOTES: c-Met kinase inhibitory activity (DELFIA time-resolved fluorescence)
# EXPERIMENTAL_CONTEXT: c-Met kinase activity reduced to 50%

{"COMPOUND": "Cn1cc(-c2cnc3nnn(CC4CCCN(c5ncc(-c6cnn(C7CCNCC7)c6)cn5)C4)c3n2)cn1 (stereo not drawn) [Chemical formula 37]", "IC50": "2 nM"}
{"COMPOUND": "CN1CCC(n2cc(-c3cnc(N4CCO[C@H](Cn5nnc6ncc(-c7cnn(C)c7)nc65)C4)nc3)cn2)CC1 [Chemical formula 7]", "IC50": "6 nM"}
{"COMPOUND": "CN1CCN(Cc2ccc(-c3cnc(N4CCO[C@H](Cn5nnc6ncc(-c7cnn(C)c7)nc65)C4)nc3)cc2F)CC1 [Chemical formula 40]", "IC50": "2 nM"}
{"COMPOUND": "CN1CCN(Cc2ccc(-c3cnc(N4CCO[C@H](Cn5nnc6ncc(-c7ccc(F)c(C#N)c7)nc65)C4)nc3)cc2F)CC1 [Chemical formula 39]", "IC50": "2 nM"}
{"COMPOUND": "CN1CCN(C(=O)c2ccc(-c3cnc(N4CCO[C@H](Cn5nnc6ncc(-c7cnn(C)c7)nc65)C4)nc3)cc2)CC1 [Chemical formula 47]", "IC50": "13 nM"}
{"COMPOUND": "Cn1cc(-c2cnc3nnn(C[C@@H]4CN(c5ncc(-c6cnn(C7CCN(CCO)CC7)c6)cn5)CCO4)c3n2)cn1 [Chemical formula 8]", "IC50": "4 nM"}

---

Attribute: IC50
# Test system: gastric cancer cell line Hs746T
# METHOD_NOTES: Cancer cell proliferation inhibitory test (SRB or MTS assay, 72 hours)
# Type: cell-based
# EXPERIMENTAL_CONTEXT: Homo sapiens, cancer cell (Hs746T) proliferation inhibition, culturing with compound for 72 hours
Where a name gives a salt, the structure may show the parent alone.
ENDPOINT_NAME: IC50 (nM)

{"MOLECULE": "Cn1cc(-c2cnc3nnn(C[C@@H]4CN(c5ncc(-c6cnn(C7CCN(CCO)CC7)c6)cn5)CCO4)c3n2)cn1 [Chemical formula 8]", "EXPERIMENTAL_TARGET": "gastric cancer cell line Hs746T", "ENDPOINT_NAME": "IC50", "UNIT_SPEC": "nM", "QUANTITATIVE_READOUT": 0.14}
{"MOLECULE": "N#Cc1cc(-c2cnc3nnn(C[C@@H]4CN(c5ncc(C6=CCNCC6)cn5)CCO4)c3n2)ccc1F [Chemical formula 30]", "EXPERIMENTAL_TARGET": "gastric cancer cell line Hs746T", "ENDPOINT_NAME": "IC50", "UNIT_SPEC": "nM", "QUANTITATIVE_READOUT": 0.11}
{"MOLECULE": "CN1CC=C(c2cnc(N3CCCC(Cn4nnc5ncc(-c6cnn(C)c6)nc54)C3)nc2)CC1 (centres unmarked) [Chemical formula 34]", "EXPERIMENTAL_TARGET": "gastric cancer cell line Hs746T", "ENDPOINT_NAME": "IC50", "UNIT_SPEC": "nM", "QUANTITATIVE_READOUT": 15}
{"MOLECULE": "Cn1cc(-c2cnc3nnn(CC4CCCN(c5ncc(C6=CCNCC6)cn5)C4)c3n2)cn1 (centres unmarked) [Chemical formula 33]", "EXPERIMENTAL_TARGET": "gastric cancer cell line Hs746T", "ENDPOINT_NAME": "IC50", "UNIT_SPEC": "nM", "QUANTITATIVE_READOUT": 9.5}
{"MOLECULE": "N#Cc1cc(-c2cnc3nnn(C[C@@H]4CN(c5ncc(-c6cnn(CCO)c6)cn5)CCO4)c3n2)ccc1F [Chemical formula 32]", "EXPERIMENTAL_TARGET": "gastric cancer cell line Hs746T", "ENDPOINT_NAME": "IC50", "UNIT_SPEC": "nM", "QUANTITATIVE_READOUT": 0.14}
{"MOLECULE": "Cn1cc(-c2cnc3nnn(C[C@@H]4CN(c5ncc(-c6ccc(OCCN7CCOCC7)c(F)c6)cn5)CCO4)c3n2)cn1 [Chemical formula 13]", "EXPERIMENTAL_TARGET": "gastric cancer cell line Hs746T", "ENDPOINT_NAME": "IC50", "UNIT_SPEC": "nM", "QUANTITATIVE_READOUT": 0.86}
{"MOLECULE": "CN1CC=C(c2cnc(N3CCO[C@H](Cn4nnc5ncc(-c6cnn(C)c6)nc54)C3)nc2)CC1 [Chemical formula 10]", "EXPERIMENTAL_TARGET": "gastric cancer cell line Hs746T", "ENDPOINT_NAME": "IC50", "UNIT_SPEC": "nM", "QUANTITATIVE_READOUT": 1.1}
{"MOLECULE": "Cn1cc(-c2cnc3nnn(C[C@@H]4CN(c5ncc(-c6cnn(C7CCNCC7)c6)cn5)CCO4)c3n2)cn1 [Chemical formula 4, HCl salt]", "EXPERIMENTAL_TARGET": "gastric cancer cell line Hs746T", "ENDPOINT_NAME": "IC50", "UNIT_SPEC": "nM", "QUANTITATIVE_READOUT": 1.2}
{"MOLECULE": "Cn1cc(-c2cnc3nnn(CC4CCCN(c5ncc(C6=CCN(CCO)CC6)cn5)C4)c3n2)cn1 (centres unmarked) [Chemical formula 35]", "EXPERIMENTAL_TARGET": "gastric cancer cell line Hs746T", "ENDPOINT_NAME": "IC50", "UNIT_SPEC": "nM", "QUANTITATIVE_READOUT": 2}
{"MOLECULE": "Cn1cc(-c2cnc3nnn(CC4CCCN(c5ncc(-c6cnn(CCO)c6)cn5)C4)c3n2)cn1 (centres unmarked) [Chemical formula 36]", "EXPERIMENTAL_TARGET": "gastric cancer cell line Hs746T", "ENDPOINT_NAME": "IC50", "UNIT_SPEC": "nM", "QUANTITATIVE_READOUT": 3.8}
{"MOLECULE": "Cn1cc(-c2cnc3nnn(C[C@@H]4CN(c5ncc(OCCN6CCOCC6)cn5)CCO4)c3n2)cn1 [Chemical formula 16]", "EXPERIMENTAL_TARGET": "gastric cancer cell line Hs746T", "ENDPOINT_NAME": "IC50", "UNIT_SPEC": "nM", "QUANTITATIVE_READOUT": 2.1}
{"MOLECULE": "Cn1cc(-c2cnc3nnn(C[C@@H]4CN(c5ncc(C6CCN(CCO)CC6)cn5)CCO4)c3n2)cn1 [Chemical formula 21]", "EXPERIMENTAL_TARGET": "gastric cancer cell line Hs746T", "ENDPOINT_NAME": "IC50", "UNIT_SPEC": "nM", "QUANTITATIVE_READOUT": 5.6}
{"MOLECULE": "Cn1cc(-c2cnc3nnn(C[C@@H]4CN(c5ncc(C6=CCN(CCO)CC6)cn5)CCO4)c3n2)cn1 [Chemical formula 12]", "EXPERIMENTAL_TARGET": "gastric cancer cell line Hs746T", "ENDPOINT_NAME": "IC50", "UNIT_SPEC": "nM", "QUANTITATIVE_READOUT": 0.96}
{"MOLECULE": "Cn1cc(-c2cnc3nnn(C[C@@H]4CN(c5ncc(C6=CCNCC6)cn5)CCO4)c3n2)cn1 [Chemical formula 9, hydrochloride]", "EXPERIMENTAL_TARGET": "gastric cancer cell line Hs746T", "ENDPOINT_NAME": "IC50", "UNIT_SPEC": "nM", "QUANTITATIVE_READOUT": 0.95}
{"MOLECULE": "CN1CCC(n2cc(-c3cnc(N4CCO[C@H](Cn5nnc6ncc(-c7cnn(C)c7)nc65)C4)nc3)cn2)CC1 [Chemical formula 7]", "EXPERIMENTAL_TARGET": "gastric cancer cell line Hs746T", "ENDPOINT_NAME": "IC50", "UNIT_SPEC": "nM", "QUANTITATIVE_READOUT": 0.11}
{"MOLECULE": "Cn1cc(-c2cnc3nnn(CC4CCCN(c5ncc(-c6cnn(C7CCNCC7)c6)cn5)C4)c3n2)cn1 (centres unmarked) [Chemical formula 37]", "EXPERIMENTAL_TARGET": "gastric cancer cell line Hs746T", "ENDPOINT_NAME": "IC50", "UNIT_SPEC": "nM", "QUANTITATIVE_READOUT": 1.3}
{"MOLECULE": "Cn1cc(-c2cnc3nnn(C[C@@H]4CN(c5ncc(-c6ccc(OCCN7CCOCC7)cc6)cn5)CCO4)c3n2)cn1 [Chemical formula 14]", "EXPERIMENTAL_TARGET": "gastric cancer cell line Hs746T", "ENDPOINT_NAME": "IC50", "UNIT_SPEC": "nM", "QUANTITATIVE_READOUT": 4.1}
{"MOLECULE": "N#Cc1cccc(-c2cnc3nnn(C[C@@H]4CN(c5ncc(-c6cnn(CCO)c6)cn5)CCO4)c3n2)c1 [Chemical formula 31]", "EXPERIMENTAL_TARGET": "gastric cancer cell line Hs746T", "ENDPOINT_NAME": "IC50", "UNIT_SPEC": "nM", "QUANTITATIVE_READOUT": 0.18}
{"MOLECULE": "Cn1cc(-c2cnc3nnn(C[C@@H]4CN(c5ncc(-c6cnn(CCO)c6)cn5)CCO4)c3n2)cn1 [Chemical formula 11, hydrochloride]", "EXPERIMENTAL_TARGET": "gastric cancer cell line Hs746T", "ENDPOINT_NAME": "IC50", "UNIT_SPEC": "nM", "QUANTITATIVE_READOUT": 0.93}
{"MOLECULE": "Cn1cc(-c2cnc3nnn(C[C@@H]4CN(c5ncc(-c6ccc(CN7CCOCC7)cc6)cn5)CCO4)c3n2)cn1 [Chemical formula 18]", "EXPERIMENTAL_TARGET": "gastric cancer cell line Hs746T", "ENDPOINT_NAME": "IC50", "UNIT_SPEC": "nM", "QUANTITATIVE_READOUT": 9.6}
